assay: Selectivity index, ratio of Ki for rat hippocampus 5-HT1A receptor to Ki for human recombinant 5-HT7 receptor
PROPERTY: Ratio Ki

Lookup: Given the compound `Cn1c(=O)c2c(nc3n(CCCCCN4CCN(c5ccccc5O)CC4)c(-c4ccccc4)cn23)n(C)c1=O` , what is its reported Ratio Ki?
Found: 0.2

Lookup: Repeat with `Cn1c(=O)c2c(nc3n(CCCCN4CCN(c5ccccc5O)CC4)c(-c4ccccc4)cn23)n(C)c1=O`
Found: 0.2

Lookup: Then `Cc1cn2c3c(=O)n(C)c(=O)n(C)c3nc2n1CCCCCN1CCN(c2ccc(Cl)cc2)CC1` ?
Found: 0.09

Lookup: For `Cn1c(=O)c2c(nc3n(CCCCCN4CCN(c5ccc(Cl)cc5)CC4)ccn23)n(C)c1=O` then?
Found: 0.02

Lookup: Note, next up: `Cc1cn2c3c(=O)n(C)c(=O)n(C)c3nc2n1CCCCN1CCN(c2ccccc2O)CC1`
Found: 0.003

Lookup: What do you have for `Cn1c(=O)c2c(nc3n(CCCCCN4CCN(c5ccc(Cl)cc5)CC4)c(-c4ccccc4)cn23)n(C)c1=O` ?
Found: 0.7

Lookup: Another compound to look at: `Cc1cn2c3c(=O)n(C)c(=O)n(C)c3nc2n1CCCCCN1CCN(c2ccccc2O)CC1`
Found: 0.1

Lookup: # iterate: `Cc1cn2c3c(=O)n(C)c(=O)n(C)c3nc2n1CCCCN1CCN(c2ccc(Cl)cc2)CC1`
Found: 0.1

Lookup: Repeat with `Cn1c(=O)c2c(nc3n(CCCCN4CCN(c5ccccc5O)CC4)ccn23)n(C)c1=O`
Found: 0.002

Lookup: Now give it for `Cn1c(=O)c2c(nc3n(CCCCN4CCN(c5ccc(Cl)cc5)CC4)c(-c4ccccc4)cn23)n(C)c1=O` too.
Found: 1.2

Lookup: What about this compound? `Cn1c(=O)c2c(nc3n(CCCCCN4CCN(c5ccccc5O)CC4)ccn23)n(C)c1=O`
Found: 0.03

Lookup: Please answer likewise for `Cc1cn2c3c(=O)n(C)c(=O)n(C)c3nc2n1CCCCCN1CCN(c2ccc(Cl)c(Cl)c2)CC1`
Found: 0.19
